Consider the following compounds; for each one, report its Selectivity ratio.
species on record: Rattus norvegicus; test: Selectivity ratio of compound effect for antagonism of alpha1D adrenergic receptor in Wistar rat thoracic aorta to compound effect for antagonism of alpha1A adrenergic receptor in Wistar rat prostatic rat vas deferens
Give bare numbers.

Below, 2 compounds whose answers are already recorded.
[[record]]
structurestring = "COc1cc2nc(N3CCN(C(C)=O)[C@H]4CCCC[C@H]43)nc(N)c2cc1OC"
observedproperty = "Selectivity ratio"
recordednumber = 2

[[record]]
structurestring = "COc1cc2nc(N3CCN(C(=O)Cc4ccc5ccccc5c4)[C@H]4CCCC[C@H]43)nc(N)c2cc1OC"
observedproperty = "Selectivity ratio"
recordednumber = 2


Consider now this further compound.
Given the compound CCCN(CCC)c1nc(N2CCN(C(=O)c3ccco3)[C@H]3CCCC[C@H]32)nc2cc(OC)c(OC)cc12 , write its reported Selectivity ratio. 2

Just for reference, ChEMBL document CHEMBL4118202 is where these values come from.
